Test system: SK-OV-3 ovarian
Assay: NCI tumour cell line growth inhibition, 48 h
Readout type: GI50

* COc1ccc2c(c1)C(C)Cc1c(ncnc1-n1cnc3ccccc31)N2C (centres undefined) | 429 nM
* COc1ccc(-c2noc(N)c2-c2cc(OC)c3c(c2)OCO3)cc1 | 4540 nM
* O=C(NNc1cnccn1)c1nc2cc(F)ccc2n2cccc12 | 522 nM
* CCOC(=O)c1sc(NC(=O)COc2cccc(/C=C3\CCc4cc(OC)ccc4C3=O)c2)nc1C | 6390 nM
* COc1cc2c3c(n(CCCN(C)CCO)c(=O)c2cc1OC)-c1cc2c(cc1C3=O)OCO2 | 11000 nM
* C=CCn1c(SCC(=O)Nc2ccc(C(=O)/C=C/c3cc(OC)c(OC)c(OC)c3)cc2)nnc1-c1ccc(OC)cc1 | 1210 nM
* CC1(C)N=C(N)N=C(N)N1c1cccc(OCCOc2cccc([N+](=O)[O-])c2)c1 | > 56400 nM
* CCC1CC(O)c2c(O)c3c(c(O)c2C1O)C(=O)c1cccc(O)c1C3=O (centres undefined) (tested in a mixture with another compound) | 11.1 nM
* Nc1c(C(=O)Nc2ccccc2Cl)sc2nc3c(cc12)C(=O)CCC3 | 782 nM

====

System: COLO 205 colon
Assay: NCI tumour cell line growth inhibition, 48 h
Where a SMILES comes first, the peptide text is derived from it. The star is where a group is joined. Cbz = O=C(OCc1ccccc1)*
Readout type: TGI (µM)

- CCC(=O)OCN(C)c1nc(N(C)COC(=O)CC)nc(N(C)COC(=O)CC)n1: 59.2
- Cc1c2ccc3ccccc3c2c[n+]2ccccc12: 16.5
- CCOC(=O)CCC(NC(=O)C(Cc1ccccc1)NC(=O)OCc1ccccc1)C(=O)OCC (stereo not drawn) (Cbz-Phe-Glu(OEt)-OEt; configuration not given here): 35.3

====

System: UACC-257 melanoma
Test: NCI tumour cell line growth inhibition, 48 h
Readings of log10 of TGI for the listed molecules
Readout type: log10 of TGI (log10 of the value in µM)

* CC(=O)c1c(N=[N+]=[N-])c2cccc3c2n(c1=O)CCC3 | 1.58
* CNC(C)[C@H]1CCC2C3CC=C4C(=O)[C@@H](NC(=O)C=C(C)C)CC[C@]4(C)C3CC[C@@]21C (stereo partly specified) | 0.74
* Cn1c(=S)c2[nH]c(SCCCc3ccccc3)nc2n(C)c1=O | 1.65
* Oc1ccc(N=Nc2nccs2)c(O)c1 | 1.78
* C1=NC(N(Cc2ccccc2)Cc2ccccc2)N(Cc2ccccc2)N1 (stereo unspecified) | 1.53
* O=C1C(Br)=CC2(C=C1Br)CCNC1=C2C(=O)c2ncccc2C1=O | 0.28

====

System: T-47D breast
Assay: NCI tumour cell line growth inhibition, 48 h
Readings of TGI for the listed compounds
Readout type: TGI

- C=C1C(=O)OC2C1CC(OC(C)=O)/C(C)=C/CCC1(C)OC21 (configuration not stated): > 100 µM
- CC(Cl)CN1c2ccccc2Sc2ccc(Cl)cc21 (configuration not stated): > 10 µM
- Oc1ccc(N=Nc2nccs2)c(O)c1: 40.1 µM
- N#Cc1cc2c(cc1Cl)Sc1nnc(Nc3ccccc3)n1S2(=O)=O: 13.3 µM
- COc1cc2nc(-c3cccs3)nc(Cl)c2cc1OC: > 100 µM
- NC(=O)CNc1ccc([As]=[As]c2ccc(NCC(N)=O)cc2)cc1 (configuration not stated): 17.4 µM
- CCOC(=O)CCC1(CCC(=O)OCC)CCCCCCCCC(CCC(=O)OCC)(CCC(=O)OCC)C(=O)C1=O: > 100 µM
- COc1ccc(C2(CC(C)C)CCN(S(=O)(=O)c3ccc(C)cc3)C2)cc1OC (configuration not stated): > 100 µM
- CN1CC=C(c2c(N)nc(N)[nH]c2=O)CC1: > 100 µM
- N/C(=N\S(=O)(=O)c1ccc(-c2ncccc2C(F)(F)F)s1)Nc1ccc(Cl)cc1: 48.3 µM
- CC(=O)Nc1c(C(=N)C#N)ncn1CCO: > 100 µM
- CNC(C)[C@H]1CCC2C3CC=C4C(=O)[C@@H](NC(=O)C=C(C)C)CC[C@]4(C)C3CC[C@@]21C (some centres not stated): 5.05 µM
- C=C(C)[C@@H]1CC[C@]2(C)[C@H](CC[C@@H]3[C@@H]([C@@](C)(O)CCC=C(C)C)CC[C@]32C)[C@@]1(C)CCC(=O)O: > 100 µM
- Cc1c2ccc3ccccc3c2c[n+]2ccccc12: 5.09 µM
- Cc1ccc(CSC(N)=Nc2ccccc2)cc1C: 45 µM
- O=C1c2c(Br)sc(Br)c2C(=O)C1(O)O: 49.4 µM
- C=C1C(O)C2C(=C(C)C13CC3)C(=O)C(C)(C)C2OC (configuration not stated): 67.8 µM
- C(=Nc1ccc2c(c1)Cc1ccccc1-2)c1ccccn1: > 100 µM
- CC(=O)OCC1OC(n2c(C)c(N=Nc3ccc(Cl)cc3)c(C)c(C#N)c2=S)C(OC(C)=O)C(OC(C)=O)C1OC(C)=O (configuration not stated): > 100 µM
- c1ccc2c(c1)c1ccccc1c1ccccc21: > 100 µM
- O=C(Nc1ccc(Cl)cc1)Nc1nccs1: > 100 µM
- O=[N+]([O-])c1c(F)c(F)c2c(c1F)N(CCCCCl)c1ccccc1S2: 27.7 µM

====

Tested on: HOP-62 NSCLC
Assay: NCI tumour cell line growth inhibition, 48 h; in the data active means GI50 below about 0.43 µM; inactive means the rest
Possible outcomes: t = active, f = inactive

* CCC[CH2][Sn]1([CH2]CCC)[O]CC(COc2c(Cl)cc(Cl)cc2Cl)[O]1 (stereo not given) | f
* O=C1c2ccccc2C(=O)c2c(NCCN=Cc3ccccc3O)cccc21 | f
* COc1cc(/C=C2\CCC/C(=C\c3ccc(OCC4CO4)c(OC)c3)C2=O)ccc1OCC1CO1 (stereo not given) | f
* CNCCn1c(=O)c2cc(OC)c(OC)cc2c2cnc3cc4c(cc3c21)OCO4 | t
* CNC(C)[C@H]1CCC2C3CC=C4C(=O)[C@@H](NC(=O)C=C(C)C)CC[C@]4(C)C3CC[C@@]21C (stereo not given in full) | f
* C=C1C(O)C2C(=C(C)C13CC3)C(=O)C(C)(C)C2OC (stereo not given) | f
* Cc1sc2c(c1C)C(c1ccc(Cl)cc1)=N[C@@H](CC(=O)Nc1ccc(OCCOCCOCCOCCNc3cccc4c3C(=O)N(C3CCC(=O)NC3=O)C4=O)cc1)c1nnc(C)n1-2 (stereo not given in full) | t
* COc1ccc(-c2noc(N)c2-c2cc(OC)c3c(c2)OCO3)cc1 | f
* CC1(C)N=C(N)N=C(N)N1c1cccc(OCCOc2cccc([N+](=O)[O-])c2)c1 | f
* O=C(N[C@@H](Cc1coc2ccccc12)B(O)O)[C@@H]1C[C@H]2CC[C@@H]1O2 | f
* COc1ccc(-c2nn(-c3cccc(Cl)c3)cc2-c2nc(N)[nH]c(=O)c2C#N)cc1 | f
* NC(=O)CNc1ccc([As]=[As]c2ccc(NCC(N)=O)cc2)cc1 (stereo not given) | f
* NCCCOc1cc2ccccc2cc1C(=O)NCCCOc1cc2ccccc2cc1C(=O)Nc1ccc(Cl)cc1O | t
* CC(=O)c1ccc2c(c1)C(=O)c1sc(C(C)=O)cc1C2=O | f
* Nc1c(C(=O)Nc2ccccc2Cl)sc2nc3c(cc12)C(=O)CCC3 | f

====

System: NCI-H23 lung
Assay: NCI tumour cell line growth inhibition, 48 h
Readings of TGI for the listed compounds
Readout type: TGI

* NC(=S)N/N=C1\CCCC\C1=C/c1ccccc1 | > 100 µM
* Cc1n[n+](Cc2ccccc2)c2sc(N)nn12 | > 100 µM
* C=C1CCCCCCCCC/C=C/1SCCCSC | > 100 µM
* COc1cc2nc(-c3cccs3)nc(Cl)c2cc1OC | > 100 µM
* CCC[CH2][Sn]1([CH2]CCC)[O]CC(COc2c(Cl)cc(Cl)cc2Cl)[O]1 (stereo unspecified) | 2.69 µM
* C[Si](C)(C)CN1C(=O)c2ccccc2C1(O)c1ccccc1 (stereo unspecified) | > 100 µM
* C=C1CC[C@H]2C(=O)OC(c3ccoc3)C[C@]2(C)C/C=C\C=C/1C(=O)OC (stereo partly specified) | > 25 µM
* COC(=O)[C@]12CC[C@@H](C)[C@H](C)[C@@H]1C1=CC[C@@H]3[C@@]4(C)C(C=O)=C[C@@](C)(COC(=O)c5ccco5)[C@@H]4[C@H](O)C[C@@]3(C)[C@]1(C)CC2 | 7.01 µM
* CCCCCCCCCCCC(=O)OC[C@@H](C[As](=O)(O)O)OC(=O)CCCCCCCCCCC | 17.8 µM
* C=CCn1c(SCC(=O)Nc2ccc(C(=O)/C=C/c3cc(OC)c(OC)c(OC)c3)cc2)nnc1-c1ccc(OC)cc1 | 2.66 µM
* CC(=O)SC(C[N+](=O)[O-])c1ccc2c(c1)OCO2 (stereo unspecified) | 34.6 µM
